Source: patent US8569298B2

pIC50: −log10 of the molar value.
// values below are pIC50; system is FAK enzyme (6 His tagged kinase domain, GenBank NP—722560) (Homo sapiens, UniProt Q05397)
Sequence (Q05397 422-680 limits assumed): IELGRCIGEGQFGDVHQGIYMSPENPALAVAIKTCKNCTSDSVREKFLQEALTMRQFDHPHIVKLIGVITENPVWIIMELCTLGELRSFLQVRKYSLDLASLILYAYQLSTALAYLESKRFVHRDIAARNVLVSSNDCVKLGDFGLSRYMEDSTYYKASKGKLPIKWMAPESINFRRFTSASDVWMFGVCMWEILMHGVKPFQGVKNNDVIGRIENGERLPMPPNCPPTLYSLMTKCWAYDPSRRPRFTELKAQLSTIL
test.readout: pIC50

[[record]]
molecule = "CNC(=O)c1ccccc1Nc1cc(Nc2c(C)nn(C)c2C)ncc1C(F)(F)F"
assay_value = 7.89

[[record]]
molecule = "Cc1nn(C(F)F)cc1Nc1cc(Nc2cccc3c2C(=O)N(C)CC3)c(Cl)cn1"
assay_value = 7.64

[[record]]
molecule = "CNC(=O)c1ccccc1Nc1cc(Nc2cc(OC)nn2C)ncc1C#N"
assay_value = 6.99

[[record]]
molecule = "CNC(=O)c1cc(SC)ccc1Nc1cc(Nc2cn(C)nc2C)ncc1C(F)(F)F"
assay_value = 7.96

[[record]]
molecule = "CNC(=O)c1ccccc1Nc1cc(Nc2cn(C)nc2C)ncc1C(F)(F)F"
assay_value = 8.10

[[record]]
molecule = "Cc1nn(C)cc1Nc1cc(Nc2cccc3c2C(=O)N(C)CC3)c(C#N)cn1"
assay_value = 8.22

[[record]]
molecule = "CN1CCc2cccc(Nc3cc(Nc4ccnn4C)ncc3Cl)c2C1=O"
assay_value = 8.22

[[record]]
molecule = "Cc1nn(C)cc1Nc1cc(Nc2cccc3c2C(=O)N(C)CC3)c(Cl)cn1"
assay_value = 8.05

[[record]]
molecule = "CNC(=O)c1ccccc1Nc1cc(Nc2cnn(C)c2)ncc1F"
assay_value = 5.66

[[record]]
molecule = "CNC(=O)c1ccccc1Nc1cc(Nc2cnn(CC(=O)N3CCCN(C)CC3)c2)ncc1Cl"
assay_value = 7.17

[[record]]
molecule = "CNC(=O)c1cc(N2CCN(C)CC2)ccc1Nc1cc(Nc2cc(C)n(C)n2)ncc1Cl"
assay_value = 6.60

[[record]]
molecule = "CNC(=O)c1ccccc1Nc1cc(Nc2cnn(C3CCNCC3)c2)ncc1Cl"
assay_value = 6.16

[[record]]
molecule = "CNC1CCN(C(=O)Cn2cc(Nc3cc(Nc4cccc5c4C(=O)N(C)CC5)c(F)cn3)cn2)C1 (centres unmarked)"
assay_value = 7.14

[[record]]
molecule = "CN1CCN(c2[nH]nc(Nc3cc(Nc4cccc5c4C(=O)N(C)CC5)c(F)cn3)c2C#N)CC1"
assay_value = 4.64

[[record]]
molecule = "CNC(=O)c1ccc(F)cc1Nc1cc(Nc2cn(C)nc2C)ncc1Cl"
assay_value = 8.30

[[record]]
molecule = "CNC(=O)c1cc(F)ccc1Nc1cc(Nc2cn(C)nc2C)ncc1Cl"
assay_value = 7.06

[[record]]
molecule = "CNC(=O)c1cc(N2CCOCC2)ccc1Nc1cc(Nc2cn(C)nc2C)ncc1C(F)(F)F"
assay_value = 7.59

